Biological target: human orexin-2 receptor (Homo sapiens, UniProt O43614)
Sequence (O43614 1-444): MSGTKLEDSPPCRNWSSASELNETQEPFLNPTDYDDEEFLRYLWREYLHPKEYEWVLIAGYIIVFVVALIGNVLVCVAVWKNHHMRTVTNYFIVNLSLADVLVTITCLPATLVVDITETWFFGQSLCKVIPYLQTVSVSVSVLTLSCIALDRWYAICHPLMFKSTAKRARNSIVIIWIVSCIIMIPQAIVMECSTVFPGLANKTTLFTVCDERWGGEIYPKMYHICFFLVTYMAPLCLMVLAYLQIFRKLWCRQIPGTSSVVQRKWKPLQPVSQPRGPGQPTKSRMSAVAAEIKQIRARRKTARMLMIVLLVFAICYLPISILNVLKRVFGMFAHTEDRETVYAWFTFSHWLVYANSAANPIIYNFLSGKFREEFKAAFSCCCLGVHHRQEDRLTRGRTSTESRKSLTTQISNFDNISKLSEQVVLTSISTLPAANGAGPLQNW
Assay: FLIPR Ca2+ flux assay, OX2R
Conditions: CHO cells expressing the human orexin-2 receptor; agonist 70 pM Ala-6,12 orexin-A
Measured IC50 of individual entries

{"compound": "Cc1cc(C#N)nc(N2CC3CC2CN(C(=O)c2ccccc2OCC(F)(F)F)C3)n1 (stereo not drawn)", "IC50 [nM]": 18}
{"compound": "Cc1cc(C)nc(N2CC3CC2CN(C(=O)c2ccccc2OC(F)F)C3)n1 (stereo not drawn)", "IC50 [nM]": 24}
{"compound": "Cc1cc(C)nc(N2CC3CC2CN(C(=O)c2nccnc2OCC(F)(F)F)C3)n1 (stereo not drawn)", "IC50 [nM]": 36}
{"compound": "Cc1cc(C)nc(N2CC3CC2CN(C(=O)c2nccnc2OCC(C)(F)F)C3)n1 (stereo not drawn)", "IC50 [nM]": 39}
{"compound": "Cc1cc(C)nc(N2CC3CC2CN(C(=O)c2nccnc2OCC2CC2)C3)n1 (stereo not drawn)", "IC50 [nM]": 37}
{"compound": "Cc1cc(C)nc(N2CC3CC2CN(C(=O)c2cccnc2OCCC(F)(F)F)C3)n1 (stereo not drawn)", "IC50 [nM]": 21}
{"compound": "Cc1cc(C#N)nc(N2CC3CC2CN(C(=O)c2cccnc2OCC(F)F)C3)n1 (stereo not drawn)", "IC50 [nM]": 19}
{"compound": "CCCc1ccccc1C(=O)N1CC2CC(C1)N(c1nc(C)cc(C)n1)C2 (stereo not drawn)", "IC50 [nM]": 14}
{"compound": "Cc1cc(C#N)nc(N2CC3CC2CN(C(=O)c2ccccc2CC(F)(F)F)C3)n1 (stereo not drawn)", "IC50 [nM]": 23}

###

Biological target: human orexin-2 receptor (Homo sapiens, UniProt O43614)
Construct: expressed in transfected cells; host or cells: CHO cells (grown under G418 selection)
Sequence (O43614 1-444): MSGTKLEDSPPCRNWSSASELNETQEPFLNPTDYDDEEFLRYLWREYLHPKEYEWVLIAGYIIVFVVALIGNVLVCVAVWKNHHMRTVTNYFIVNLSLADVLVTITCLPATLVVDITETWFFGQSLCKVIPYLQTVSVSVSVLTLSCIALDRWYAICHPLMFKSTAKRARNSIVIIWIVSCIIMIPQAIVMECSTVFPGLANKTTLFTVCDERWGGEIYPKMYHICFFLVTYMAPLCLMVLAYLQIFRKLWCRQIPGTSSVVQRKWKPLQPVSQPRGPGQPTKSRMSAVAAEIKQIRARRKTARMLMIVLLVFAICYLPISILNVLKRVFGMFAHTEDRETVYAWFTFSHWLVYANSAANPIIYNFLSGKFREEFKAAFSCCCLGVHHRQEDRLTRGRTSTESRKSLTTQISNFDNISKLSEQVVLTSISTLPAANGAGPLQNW
Test: FLIPR Ca2+ flux assay, OX2R
Assay type: cell-based
Conditions: OX1R FLIPR / OX2R FLIPR
Each entry gets condition not met if its Fold Selective stays under 90, and condition met if its Fold Selective is 90 or above.

{"compound": "COc1ccc(C(=O)N2CC3CC(C2)N(c2nc(C)cc(C)n2)C3)c(C2CC2)n1 (stereo not drawn)", "system_tested": "human orexin-2 receptor (Homo sapiens, UniProt O43614)", "category": "condition not met"}
{"compound": "Cc1cc(C)nc(N2CC3CC2CN(C(=O)c2cccnc2OCC2CC2)C3)n1 (stereo not drawn)", "system_tested": "human orexin-2 receptor (Homo sapiens, UniProt O43614)", "category": "condition met"}
{"compound": "Cc1cc(C)nc(N2CC3CC2CN(C(=O)c2cccnc2OCC(F)F)C3)n1 (stereo not drawn)", "system_tested": "human orexin-2 receptor (Homo sapiens, UniProt O43614)", "category": "condition met"}
{"compound": "Cc1cc(C)nc(N2CC3CC2CN(C(=O)c2cc(F)ccc2C2CC2)C3)n1 (stereo not drawn)", "system_tested": "human orexin-2 receptor (Homo sapiens, UniProt O43614)", "category": "condition not met"}
{"compound": "Cc1cc(C)nc(N2CC3CC2CN(C(=O)c2ccccc2C2(C#N)CC2)C3)n1 (stereo not drawn)", "system_tested": "human orexin-2 receptor (Homo sapiens, UniProt O43614)", "category": "condition not met"}
{"compound": "Cc1cc(C)nc(N2CC3CC2CN(C(=O)c2cccnc2N(C)CC(F)F)C3)n1 (single isomer, unassigned)", "system_tested": "human orexin-2 receptor (Homo sapiens, UniProt O43614)", "category": "condition met"}
{"compound": "Cc1cc(C)nc(N2CC3CC2CN(C(=O)c2cccnc2OCC2CC2(F)F)C3)n1 (stereo not drawn)", "system_tested": "human orexin-2 receptor (Homo sapiens, UniProt O43614)", "category": "condition not met"}
{"compound": "Cc1cc(C)nc(N2CC3CC2CN(C(=O)c2cccnc2C2CC2)C3)n1 (stereo not drawn)", "system_tested": "human orexin-2 receptor (Homo sapiens, UniProt O43614)", "category": "condition met"}
{"compound": "Cc1cc(C#N)nc(N2CC3CC2CN(C(=O)c2cccnc2C2CC2)C3)n1 (stereo not drawn)", "system_tested": "human orexin-2 receptor (Homo sapiens, UniProt O43614)", "category": "condition met"}

###

Biological target: human orexin-2 receptor (Homo sapiens, UniProt O43614)
Sequence (O43614 1-444): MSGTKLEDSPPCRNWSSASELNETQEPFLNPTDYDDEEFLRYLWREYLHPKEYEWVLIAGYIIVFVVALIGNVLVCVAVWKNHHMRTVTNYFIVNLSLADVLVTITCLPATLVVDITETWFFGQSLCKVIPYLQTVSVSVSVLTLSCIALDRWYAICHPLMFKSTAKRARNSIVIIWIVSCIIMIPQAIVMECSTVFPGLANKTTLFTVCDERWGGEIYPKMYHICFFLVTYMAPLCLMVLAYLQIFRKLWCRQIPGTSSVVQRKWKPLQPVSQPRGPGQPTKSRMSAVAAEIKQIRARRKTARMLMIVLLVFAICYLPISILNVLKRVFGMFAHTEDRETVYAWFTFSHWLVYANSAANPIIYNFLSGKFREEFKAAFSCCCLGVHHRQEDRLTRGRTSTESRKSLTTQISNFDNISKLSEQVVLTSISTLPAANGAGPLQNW
Experiment: FLIPR Ca2+ flux assay, OX2R
Settings: CHO cells expressing the human orexin-2 receptor; agonist 70 pM Ala-6,12 orexin-A
Some compounds, each annotated with its measured IC50.

{"compound": "Cc1cc(C)nc(N2CC3CC2CN(C(=O)c2cccnc2CC(F)(F)F)C3)n1 (stereo not drawn)", "IC50": "58 nM"}
{"compound": "Cc1cc(C)nc(N2CC3CC2CN(C(=O)c2cccnc2OCC(F)F)C3)n1 (stereo not drawn)", "IC50": "15 nM"}
{"compound": "Cc1cc(C)nc(N2CC3CC2CN(C(=O)c2cc(F)cnc2C2CC2)C3)n1 (stereo not drawn)", "IC50": "29 nM"}
{"compound": "Cc1cc(C)nc(N2CC3CC2CN(C(=O)c2nccnc2-n2cccn2)C3)n1 (stereo not drawn)", "IC50": "50 nM"}
{"compound": "Cc1cc(C)nc(N2CC3CC2CN(C(=O)c2ccccc2OC(F)(F)F)C3)n1 (stereo not drawn)", "IC50": "30 nM"}
{"compound": "Cc1cc(C)nc(N2CC3CC2CN(C(=O)c2cccc(F)c2C2CC2)C3)n1 (stereo not drawn)", "IC50": "17 nM"}
{"compound": "Cc1cc(C)nc(N2CC3CC2CN(C(=O)c2ccccc2C2CC2)C3)n1 (stereo not drawn)", "IC50": "13 nM"}
{"compound": "Cc1cc(C)nc(N2CC3CC2CN(C(=O)c2cccnc2OCC2CC2)C3)n1 (stereo not drawn)", "IC50": "13 nM"}
{"compound": "Cc1cc(C)nc(N2CC3CC2CN(C(=O)c2ccccc2OCC(F)(F)F)C3)n1 (stereo not drawn)", "IC50": "10 nM"}

###

Molecular target: human orexin-2 receptor (Homo sapiens, UniProt O43614)
Test: FLIPR Ca2+ flux assay, OX2R
Details: CHO cells expressing the human orexin-2 receptor; agonist 70 pM Ala-6,12 orexin-A
Just so you know, the groups by IC50 go like this: lo: < 20 nM; med: ≥ 20 nM and < 50 nM; hi: ≥ 50 nM

{"compound": "COc1ccc(C(=O)N2CC3CC(C2)N(c2nc(C)cc(C)n2)C3)c(-n2nccn2)n1 (centres unmarked) [Example 30]", "system_tested": "human orexin-2 receptor (Homo sapiens, UniProt O43614)", "category": "hi"}
{"compound": "CSc1ccccc1C(=O)N1CC2CC(C1)N(c1nc(C)cc(C)n1)C2 (centres unmarked) [Example 17]", "system_tested": "human orexin-2 receptor (Homo sapiens, UniProt O43614)", "category": "med"}
{"compound": "Cc1cc(C)nc(N2CC3CC2CN(C(=O)c2ccc(F)cc2C2CC2)C3)n1 (centres unmarked) [Example 14]", "system_tested": "human orexin-2 receptor (Homo sapiens, UniProt O43614)", "category": "med"}
{"compound": "Cc1cc(C)nc(N2CC3CC2CN(C(=O)c2cc(F)ccc2C2CC2)C3)n1 (centres unmarked) [Example 12]", "system_tested": "human orexin-2 receptor (Homo sapiens, UniProt O43614)", "category": "med"}
{"compound": "Cc1cc(C)nc(N2CC3CC2CN(C(=O)c2ccccc2-n2ncnn2)C3)n1 (centres unmarked) [Example 19]", "system_tested": "human orexin-2 receptor (Homo sapiens, UniProt O43614)", "category": "med"}
{"compound": "CO[C@@H]1CCN(c2ncccc2C(=O)N2CC3CC(C2)N(c2nc(C)cc(C)n2)C3)C1 (some centres unmarked) [Example 46]", "system_tested": "human orexin-2 receptor (Homo sapiens, UniProt O43614)", "category": "hi"}
{"compound": "Cc1cc(C#N)nc(N2CC3CC2CN(C(=O)c2cccnc2C2CC2)C3)n1 (centres unmarked) [Example 5]", "system_tested": "human orexin-2 receptor (Homo sapiens, UniProt O43614)", "category": "hi"}
{"compound": "Cc1cc(C)nc(N2CC3CC2CN(C(=O)c2ccccc2OCC(F)F)C3)n1 (centres unmarked) [Example 37]", "system_tested": "human orexin-2 receptor (Homo sapiens, UniProt O43614)", "category": "lo"}
{"compound": "Cc1cc(C#N)nc(N2CC3CC2CN(C(=O)c2ccccc2OC(F)F)C3)n1 (centres unmarked) [Example 2]", "system_tested": "human orexin-2 receptor (Homo sapiens, UniProt O43614)", "category": "med"}
{"compound": "Cc1cc(C)nc(N2CC3CC2CN(C(=O)c2cccnc2-c2noc(C)n2)C3)n1 (centres unmarked) [Example 23]", "system_tested": "human orexin-2 receptor (Homo sapiens, UniProt O43614)", "category": "hi"}
{"compound": "Cc1cc(C)nc(N2CC3CC2CN(C(=O)c2cccnc2OCC(C)C)C3)n1 (centres unmarked) [Example 40]", "system_tested": "human orexin-2 receptor (Homo sapiens, UniProt O43614)", "category": "lo"}
{"compound": "Cc1cc(C)nc(N2CC3CC2CN(C(=O)c2ccccc2CC(F)F)C3)n1 (centres unmarked) [Example 36]", "system_tested": "human orexin-2 receptor (Homo sapiens, UniProt O43614)", "category": "lo"}
{"compound": "Cc1cc(C)nc(N2CC3CC2CN(C(=O)c2cccnc2N(C)CC(F)F)C3)n1 (single isomer, unassigned) [Example 47]", "system_tested": "human orexin-2 receptor (Homo sapiens, UniProt O43614)", "category": "med"}
{"compound": "Cc1cc(C)nc(N2CC3CC2CN(C(=O)c2nccnc2OCC(F)(F)C(F)F)C3)n1 (centres unmarked) [Example 51]", "system_tested": "human orexin-2 receptor (Homo sapiens, UniProt O43614)", "category": "med"}
{"compound": "COCCc1ccccc1C(=O)N1CC2CC(C1)N(c1nc(C)cc(C)n1)C2 (centres unmarked) [Example 33]", "system_tested": "human orexin-2 receptor (Homo sapiens, UniProt O43614)", "category": "med"}
{"compound": "Cc1cc(C)nc(N2CC3CC2CN(C(=O)c2cccnc2OC(C)C)C3)n1 (centres unmarked) [Example 21]", "system_tested": "human orexin-2 receptor (Homo sapiens, UniProt O43614)", "category": "lo"}
{"compound": "Cc1cc(C)nc(N2CC3CC2CN(C(=O)c2cccnc2-n2nccn2)C3)n1 (centres unmarked) [Example 31]", "system_tested": "human orexin-2 receptor (Homo sapiens, UniProt O43614)", "category": "hi"}

Hello, the source for this data is patent US9994570B2, in case you need it.
